Assay comment: NCI Yeast Anticancer Drug Screen. Data for the mec2-1 strain (AID 157)
Assay conditions: S. cerevisiae mec2-1 strain, at 5.0 µM (retest, dose inferred, filed as 0.5), hits give high values
The panel holds about 79,000 compounds, 15% with a hit somewhere; the sample as a whole holds those more often.
Value type: growth inhibition (%)
Unit % implied. Number only.

Lab book: growth inhibition of "O=C1/C(=C\c2ccc([N+](=O)[O-])o2)Oc2cc(O)ccc21" noted as 97

Consider "CCOC(=O)c1cnc2cc3cccccc3n2c1=O" . Its measured growth inhibition is -1

The measured growth inhibition associated with "O[C@H]1c2cccn2-c2ccccc2S[C@H]1c1ccccc1" reads -6

Please fill in: growth inhibition reported for "O=c1oc(-c2ccc(Cl)cc2[N+](=O)[O-])nc2ccccc12" = 17

Briefly, growth inhibition measured for "CCCC#CCCOC(=O)c1cc([N+](=O)[O-])cc([N+](=O)[O-])c1" : 5

# growth inhibition (compound: "CC1=C(C)C(=O)C(C(C)(C)CC(=O)n2cc(F)c(=O)[nH]c2=O)=C(C)C1=O" ) is 22

The reported value for O=C(O)CCC12CCCCC1=NC1(CCCCC1)NC2=O (stereo not drawn) in terms of growth inhibition is -2

Memo: "Oc1ccc(Br)cc1C=Nc1c(NC2CCCCC2)oc2ccc(Br)cc12" , reported growth inhibition: 3

The value of growth inhibition measured for the compound NC(CSC1(c2ccc(Cl)cc2)c2ccccc2-c2ccccc21)C(=O)O (stereo not drawn) turned out to be 8

Field growth inhibition (entry "O=[N+]([O-])c1ccc(-c2ccc(-c3csc(Nc4ccccc4)n3)o2)cc1" ) reads 96

The recorded growth inhibition for "Cc1ccc2sc3ccc(N)cc3c(=O)c2c1" is 24

Per the record, O=C(/N=C1\N=Nc2nc(C(C(=O)c3cccs3)c3nc4n(c3O)/C(=N/C(=O)Nc3ccc(Cl)cc3)N=N4)c(O)n21)Nc1ccc(Cl)cc1 (stereo not drawn) has growth inhibition of -12

The reported value for "O=C(Oc1ccc(O)c2ccccc12)c1ccccc1" in terms of growth inhibition is -3

growth inhibition measured on COc1ccc(CNC(C#N)c2ccccc2)cc1OC (stereo not drawn) = 2

Data point: CCOC(=O)C1CC2(CCC1N)c1ccccc1-c1ccccc12 (stereo not drawn) ; growth inhibition = -5

Given item "COc1ccc(C2=C/C(=C3\C(=O)Oc4ccccc4C3=O)SS2)cc1" , the value recorded as its growth inhibition is -2

Just so you know, measured growth inhibition for "CCCCCCCCCCCCCCCCS(=O)(=O)Cl" came out at 46

What the record says about CC(=O)C1CCCCC1/C=C/[N+](=O)[O-] (stereo not drawn) : growth inhibition is 16

// sample "Cc1ccc(NC(=O)COC(=O)c2cccc3c(=O)c4ccccc4[nH]c23)cc1" , its growth inhibition was 27

What the record says about "C1=C(C2=C[P+](c3ccccc3)(c3ccccc3)C=C(c3ccccc3)O2)OC(c2ccccc2)=C[P+]1(c1ccccc1)c1ccccc1" : growth inhibition is 4

Briefly, growth inhibition measured for "COc1ccccc1CN1CCCN(Cc2ccccc2OC)C1c1cc(Cl)cc(Cl)c1O" : 11

Reported growth inhibition for "Nc1ccccc1CCc1ccccc1" was 0

For this compound ( "CC/C(=C\c1cccc(OC)c1)c1ccncc1" ), measured growth inhibition is 12

###

Assay comment: NCI Yeast Anticancer Drug Screen. Data for the rad50 strain (AID 155);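 note: 0% = growth of vehicle-only cultures of the same strain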
Assay conditions: S. cerevisiae rad50 strain growth inhibition; at 50.0 µM
The panel holds about 79,000 compounds, 15% with a hit somewhere; the sample as a whole holds those more often. The source made the active and inactive calls. Rule as the data show it: active = growth inhibition above about 70%; inactive = the rest.
Tick one outcome: class 1 (active), class 0 (inactive)

Q: Identify the outcome logged in this assay for the compound shown: "Cc1cc(Nc2ccc(O)c(CN3CCN(Cc4cc(Nc5cc(C)nc(N)n5)ccc4O)CC3)c2)nc(N)n1"
Ans: class 1

Q: Record request — test call for CCSC1(SCC)C(=O)OC2=C(CCCC2)C1N1CCOCC1 (stereo not given)
Ans: class 0

Q: Which outcome was assigned to "CCOc1ccc2nc(Cl)sc2c1" in this test?
Ans: class 1

Q: Outcome logged for "[Cl][Pt+2][Cl].[NH-]c1cc2ccccc2cc1[NH-]" in this assay:
Ans: class 0

Q: Please indicate how the test categorized "O=c1c(-c2ccccc2)c(-c2ccccc2)c1=O" .
Ans: class 1

Q: Answer briefly: the call reported for "O=[N+]([O-])c1ccc(O)c(-c2ccccc2)c1" in this assay.
Ans: class 1

Q: Please indicate how the test categorized "O=C1C=C/C(=C(/c2ccc(O)c(O)c2)c2ccccc2S(=O)(=O)O)C=C1O" .
Ans: class 0

Q: // outcome(item) with item = "Cc1ccc(C)c(NC(=O)CCC(=O)CC(=O)c2ccncc2)c1"
Ans: class 0

Q: Assay result, entry COc1cccc2c1C(=O)c1c(O)c3c(c(O)c1C2=O)CC(O)(C(C)=O)CC3OC1OC(COC(C)=O)C(OC(C)=O)C(OC(C)=O)C1OC(C)=O (stereo not given) — outcome?
Ans: class 1

Q: I'd appreciate the recorded outcome for O=C(O)/C=C1\c2ccccc2CCC1c1ccc2ccccc2c1 (stereo not given) from this test.
Ans: class 1

###

Assay comment: NCI Yeast Anticancer Drug Screen. Data for the sgs1 mgt1 strain (AID 161);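 note: 0% = growth of cultures given vehicle only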
Assay conditions: S. cerevisiae sgs1 mgt1 strain, at 50.0 µM (retest, dose inferred, filed as 5.0), hits give high values
The panel holds about 79,000 compounds, 15% with a hit somewhere; the sample as a whole holds those more often.
For each of the molecules below, state its growth inhibition.
Answer format: numeric, % implied, no suffix.

The molecule "CCOC(=O)c1csc(=S)[nH]1" showed growth inhibition equal to 95

// "O/N=C(/CCc1ccccc1Cl)c1ccccc1" : growth inhibition value = 75

Documented growth inhibition of O=P1(NCC2CCCO2)OCC2(CO1)COP(=O)(NCC1CCCO1)OC2 (stereo unspecified) : 98

The reported growth inhibition of the molecule "CC(=O)/C(=C\c1c(Cl)cccc1Cl)C(=O)CCN(C)C" was 99

Consider "O=C1C=CC(=Nc2ccc(O)c3ncccc23)c2cccnc21" . Its measured growth inhibition is 96

Measured growth inhibition of "O=C(C(/C=N\C(=S)Nc1ccccc1Cl)=C(/O)c1ccccc1)c1ccccc1" : 99

Briefly, growth inhibition measured for "Cc1[nH]c(=O)[nH]c(=O)c1CN(C)Cc1cc(Cl)cc(Cl)c1O" : 95

Input CCCCN(CCCC)CCCC(O)c1c2ccc(Cl)cc2nc2ccc(OC)cc12 (stereo unspecified) . Output growth inhibition: 11

Entry "O=c1oc2c3ccc4ccccc4c3n(CCCN3CCCCC3)c2c2ccccc12" , growth inhibition reported as 35

For reference, reported growth inhibition for COc1cccc2c1OC(c1ccc(Cl)cc1)C([N+](=O)[O-])=C2 (stereo unspecified) stands at 96

In plain terms, O=C1c2ccc3ccccc3c2CCC1[n+]1ccc2ccccc2c1 (stereo unspecified) has a documented growth inhibition of 79

###

Assay comment: NCI Yeast Anticancer Drug Screen. Data for the mec2-1 strain (AID 157)
Assay conditions: S. cerevisiae mec2-1 strain, at 50.0 µM (retest, dose inferred, filed as 5.0), hits give high values
The panel holds about 79,000 compounds, 15% with a hit somewhere; the sample as a whole holds those more often.
Assignment: determine reported growth inhibition for the given compounds.
Kindly answer with a numeric value in %, unit omitted.

In plain terms, "O=C1C=CC(=C(c2ccccc2)c2ccc(O)cc2)C=C1" has a documented growth inhibition of 72

// "O=C(Nc1ccc(O)cc1O)c1ccccc1" : growth inhibition value = 61

response.value for "COc1ccc(OC(=O)c2ccccc2)c2c1C(=O)C=CC2=O" (field: growth inhibition) = 38

Recorded result, "COc1ccc(Oc2c(OC)cc(NCCCCCNC(C)C)c3ncccc23)cc1" , growth inhibition: 52

// sample CC(C)c1cc2c(cc1O)C(O)C1(O)CCCC(C)(C)[C@H]1CC2 (stereo partly drawn) , its growth inhibition was 100

Reported growth inhibition of "CSCCOC(=O)c1cc(NC(=S)c2ccoc2C)ccc1Cl" : 78

Reported growth inhibition ( "CSS(=O)(=O)c1ccc(C)cc1" ) = 100

growth inhibition recorded for this compound, "C#CC(=O)OCC#CCOC(=O)C#C" , is 95

Briefly, growth inhibition measured for "CCCCCCCC/C(C=O)=C\c1ccccc1" : -2

Entry COC1CCC(/C(C#N)=C/c2ccco2)CC1 (stereo not drawn) ; growth inhibition = 13

Per the records, this compound ( "O=C1NC(=O)c2cccc3cccc1c23" ) has growth inhibition equal to 25

compound "O/N=C(/CCc1ccccc1Cl)c1ccccc1" , growth inhibition observed: 55

The recorded growth inhibition for entry O=C1CSC(c2c[nH]c3ccccc23)N1c1cccc(Cl)c1 (stereo not drawn) equals 97

###

Assay comment: NCI Yeast Anticancer Drug Screen. Data for the sgs1 mgt1 strain (AID 161);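 note: 0% = growth of cultures given vehicle only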
Assay conditions: S. cerevisiae sgs1 mgt1 strain, at 5.0 µM (retest, dose inferred, filed as 0.5)
The panel holds about 79,000 compounds, 15% with a hit somewhere; the sample as a whole holds those more often. Active and inactive are the calls of the source. Cut-off read from the data, not from the text of the source: active = growth inhibition above about 70%; inactive = the rest.
Give one outcome, nothing more. List: active, inactive

Q: What call does the record list for CN1C=COC1N=C1CCCCC1 (centres undefined) ?
Ans: inactive

Q: Recorded test outcome, item "O=P(Nc1ccccc1)(OCc1ccccc1)OCc1ccccc1"
Ans: inactive

Q: Test call for this molecule, please: "Cc1cc(=O)n(-c2ccc(F)cc2)n1C"
Ans: inactive

Q: Which outcome was entered for the molecule "Cc1nc2c(nc1C)C(=O)C1=C(C2=O)C2C=CC1CC2" in this test?
Ans: inactive

Q: Tell me the recorded outcome of this test for CC(C)CCCC(=O)CCCCCCC(=O)CCN(O)C(=O)C(N)CO (centres undefined) .
Ans: active

Q: Just curious, what result did O=C(CCc1ccccc1)OCC1OC(OC(=O)CCc2ccccc2)C(OC(=O)CCc2ccccc2)C(OC(=O)CCc2ccccc2)C1OC(=O)CCc1ccccc1 (centres undefined) get here?
Ans: inactive

Q: # lookup: test call for "Cc1nc2ccc(N=Nc3c(O)ccc4ccccc34)cc2[nH]1"
Ans: inactive

Q: What was the test verdict on "O=c1oc2c3ccc4ccccc4c3n(CCCN3CCCCC3)c2c2ccccc12" ?
Ans: inactive

Q: Hey, what did the test say about "COC(=O)c1ccc2ccccc2c1" ?
Ans: inactive

Q: Called result for CC(=O)N(C(C)=O)C1=C2c3ccccc3N(S(=O)(=O)c3ccccc3)C2n2c(=O)n(-c3ccccc3)c(=O)n2C1 (centres undefined)
Ans: inactive

Q: Could you please tell me the result logged for "Cc1cc2ccc(N)nc2[nH]c1=O" in this assay?
Ans: inactive

Q: I would be grateful if you could indicate the recorded call for "c1ccc(N=C2SC3=NCCN3C2=Nc2ccccc2)cc1" .
Ans: inactive

Q: For "c1ccc(CSc2nnc(SCc3ccccc3)c3[nH]cnc23)cc1" , what call appears in the results of this test?
Ans: inactive

Q: Short answer needed: outcome of this test for "COc1ccc(/C=C/C(C)=N/NC(=S)NCC(C)C)cc1" ?
Ans: inactive

Q: Just curious, what result did "COc1cc(CC#N)c(NC(C)=O)cc1OC" get here?
Ans: inactive

Q: Hey, what did the test say about "O=C1O/C(=C2\OC(=O)c3ccccc32)c2ccccc21" ?
Ans: inactive

Q: Please share the test call associated with O=C(OCC1CCCO1)N(c1ccccc1)c1ccccc1 (centres undefined) .
Ans: inactive

Q: Per the assay record, what outcome was assigned to "Cc1cc(NC(=S)SCc2ccc(F)cc2)ccc1Br" ?
Ans: inactive

Q: Entry "Nc1ccc2c(c1)[nH]c(=O)c1c(Cl)cccc12" : call = ?
Ans: inactive

Q: Please indicate how the test categorized "O=C(NNc1ccccc1)c1ccc([N+](=O)[O-])cc1" .
Ans: inactive

Q: Given CC12CCC3c4cc(O)ccc4CCC3C1CCC2O (centres undefined) , state the outcome it received in this test.
Ans: inactive

Q: Outcome? "Cn1c(=S)c2[nH]c(SCCN3CCOCC3)nc2n(C)c1=O"
Ans: inactive

Q: Test call, this molecule: CC1C[N+](C)(C)C(C)C(=O)C1(c1ccccc1)c1ccccc1 (centres undefined)
Ans: inactive

Q: Given "O=C1CCSC(=S)N1c1ccc(Br)c(Cl)c1" , state the outcome it received in this test.
Ans: inactive
